Consider the following compounds and their measured solubility at 4 h readings.
EXPERIMENTAL PROTOCOL: Solubility of compound at pH 6.8 incubated for 4 hrs by HPLC or LC-MS/MS analysis
Format: physicochemical
ASSAY CONDITIONS: buffer
Unit µg/mL implied. Number only.

SAMPLE SMILES	solubility at 4 h / µg/mL
CO[C@@H](C(=O)N1Cc2c(-c3ccc(C(=O)N4CCCc5ccccc54)cc3)cnn2C[C@@H]1C(C)C)c1ccccc1	3.8
C[C@@H](C(=O)N1Cc2c(-c3ccc(C(=O)N4CCCc5ccccc54)cc3)cnn2C[C@@H]1C)c1ccccc1	1.5
CO[C@@H](C(=O)N1Cc2c(-c3ccc(C(=O)N4CCCc5ccccc54)cc3)cnn2C[C@@H]1C(C)C)c1cnn(C)c1	65

The record that follows has no solubility at 4 h shown yet.
Query: solubility at 4 h; subject: CC(C)[C@H]1Cn2ncc(-c3ccc(C(=O)N4CCCc5ccccc54)cc3)c2CN1C(=O)Cc1ccccc1
3.6

====

Record: pIC50 reported on Ubiquitin carboxyl-terminal hydrolase 30 (Homo sapiens).
Sequence (Q70CQ3 whole entry): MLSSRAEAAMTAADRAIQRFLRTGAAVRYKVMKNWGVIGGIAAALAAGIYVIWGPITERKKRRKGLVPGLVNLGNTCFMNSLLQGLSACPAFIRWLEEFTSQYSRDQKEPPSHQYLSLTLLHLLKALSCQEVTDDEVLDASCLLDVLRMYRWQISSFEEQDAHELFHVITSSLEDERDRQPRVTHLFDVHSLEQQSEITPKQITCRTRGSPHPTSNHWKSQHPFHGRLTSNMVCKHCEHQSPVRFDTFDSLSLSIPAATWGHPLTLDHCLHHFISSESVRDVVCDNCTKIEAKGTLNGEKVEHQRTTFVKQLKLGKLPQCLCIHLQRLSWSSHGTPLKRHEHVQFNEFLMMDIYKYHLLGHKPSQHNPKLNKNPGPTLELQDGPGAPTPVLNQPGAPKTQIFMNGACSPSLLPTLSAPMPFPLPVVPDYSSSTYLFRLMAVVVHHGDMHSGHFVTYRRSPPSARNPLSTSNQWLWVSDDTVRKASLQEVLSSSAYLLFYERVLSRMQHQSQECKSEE
Bear in mind: pIC50 is minus log10 of a mol/L concentration; give just that figure.

SAMPLE SMILES	ASSAY ENDPOINT	OBSERVED VALUE
CCn1c(-c2ccc(OCC(=O)O)c(OC)c2)nc(-c2ccccc2)c1-c1ccccc1	pIC50	5.29
N#CN1CC[C@@H](NC(=O)c2cc(-c3ccccc3Oc3ccccc3)n[nH]2)C1	pIC50	8.82

The record that follows has no pIC50 shown yet.
Query: pIC50; subject: COc1cc(-c2nc(-c3ccccc3)c(-c3ccccc3)n2C2CC2)ccc1OCC(=O)O
5.07

====

TARGET ENTITY: Serine/threonine-protein kinase PINK1, mitochondrial (Homo sapiens, UniProt Q9BXM7)
Sequence (Q9BXM7 whole entry): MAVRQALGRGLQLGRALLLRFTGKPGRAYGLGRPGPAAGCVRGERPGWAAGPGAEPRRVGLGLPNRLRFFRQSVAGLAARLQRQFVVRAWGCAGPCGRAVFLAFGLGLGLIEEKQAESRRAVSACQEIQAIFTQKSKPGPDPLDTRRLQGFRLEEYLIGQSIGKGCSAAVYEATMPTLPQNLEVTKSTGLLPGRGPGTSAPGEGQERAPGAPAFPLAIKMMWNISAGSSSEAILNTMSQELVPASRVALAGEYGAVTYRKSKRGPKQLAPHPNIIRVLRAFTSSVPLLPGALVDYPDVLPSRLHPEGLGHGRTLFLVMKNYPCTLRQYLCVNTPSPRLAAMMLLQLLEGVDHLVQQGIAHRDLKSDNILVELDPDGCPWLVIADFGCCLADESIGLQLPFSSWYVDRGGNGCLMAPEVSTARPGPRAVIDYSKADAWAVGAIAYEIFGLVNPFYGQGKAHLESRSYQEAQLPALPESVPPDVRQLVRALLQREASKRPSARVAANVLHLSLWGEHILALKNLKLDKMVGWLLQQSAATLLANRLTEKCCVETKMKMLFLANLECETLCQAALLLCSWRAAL
EXPERIMENTAL PROTOCOL: Activation of full length recombinant PINK1 (unknown origin) extracted from Escherichia coli BL21 (DE3) by UV absorbance based analysis
Simple rule here: EC50 less than 0.1 µM is rule met, otherwise rule not met.

Look over these answered cases.
SAMPLE SMILES	LABEL
CO[C@@H](C(=O)N1Cc2c(-c3ccc(C(=O)N4CCCc5ccccc54)cc3)cnn2C[C@@H]1C(C)C)c1cnn(C)c1	rule not met
CC(=O)N1Cc2c(-c3ccc(C(=O)N4CCCc5ccccc54)cc3)cnn2C[C@@H]1C	rule not met
CO[C@@H](C(=O)N1Cc2c(-c3ccc(C(=O)N4CCCc5ccccc54)cc3)cnn2C[C@@H]1C(C)C)c1ccccc1	rule met
CC(C)[C@H]1Cn2ncc(-c3ccc(C(=O)N4CCCc5ccccc54)cc3)c2CN1C(=O)Cc1ccccc1	rule not met

Next, consider the following compound.
Could you please tell me whether EC50 recorded for C[C@@H](C(=O)N1Cc2c(-c3ccc(C(=O)N4CCCc5ccccc54)cc3)cnn2C[C@@H]1C)c1ccccc1 is less than 0.1 µM?
rule not met
